Examples of compounds with documented pIC50 follow.
Test system: HIF-2α HIS TAG-PASB Domain
Assay: HIF-2α Scintillation Proximity Assay (SPA)
Format: binding
Protocol: The percent inhibition was determined and IC50 values were calculated using the Dotmatics system based on the following equation: % inhibition=[(high control−sample)/(high control−low control)]×100.
Hey, just a heads up that pIC50 is the negative log base 10 of the concentration in molar.

Study these solved cases before continuing.
Query: May I ask what pIC50 has been recorded for `CS(=O)(=O)c1ccc(Oc2cc(F)cc(C#N)c2)c2c1[C@H](O)C[C@@H]2F` ?
Result: 6.64

Query: May I ask what pIC50 has been recorded for `Cc1c(Oc2cc(F)cc(C#N)c2)ccc(S(=O)(=O)C(F)(F)F)c1C=O` ?
Result: 7.13

Query: May I ask what pIC50 has been recorded for `O=S(=O)(c1ccc(Oc2cc(F)cc(Cl)c2)c(CCO)c1)C(F)(F)F` ?
Result: 5.55

Query: May I ask what pIC50 has been recorded for `O=S(=O)(c1ccc(Oc2c(F)ccc3[nH]ncc23)c2c1[C@H](O)C(F)(F)C2)C(F)(F)F` ?
Result: 6.42

---
Query: May I ask what pIC50 has been recorded for `O=S(=O)(CF)c1ccc(Oc2cncc(Cl)c2)c2c1[C@H](O)C(F)(F)C2` ?
Result: 7.10

Query: May I ask what pIC50 has been recorded for `N#Cc1cc(F)cc(Oc2ccc(S(=O)(=O)C(F)F)c3c2CC(F)(F)[C@H]3N)c1` ?
Result: 6.30

Query: May I ask what pIC50 has been recorded for C=CCN=S(=O)(c1ccc(Oc2cc(F)cc(C#N)c2)c2c1[C@H](O)C(F)(F)C2)C(F)(F)F (single isomer, unassigned) [Compound 308] ?
Result: 7.17

---

System: HIF-2α HIS TAG-PASB Domain
Test: HIF-2α Scintillation Proximity Assay (SPA)
Type: binding
property_name: pIC50
Hey, just a heads up that pIC50 is the negative log base 10 of the concentration in molar.

Study these solved cases before continuing.
Query: May I ask what pIC50 has been recorded for N=S(=O)(c1ccc(Oc2cc(F)cc(Cl)c2)c(Br)c1)C(F)(F)F (centres unmarked) ?
Result: 6.19

Query: May I ask what pIC50 has been recorded for `Cc1c(Oc2cc(F)cc(C#N)c2)ccc(S(=O)(=O)C(F)(F)F)c1Cl` ?
Result: 7.36

Query: May I ask what pIC50 has been recorded for N#Cc1cc(F)cc(Oc2ccc(S(=O)(=O)C(F)(F)F)c3c2[C@@H](N)C[C@H]3O)c1 (relative stereo) ?
Result: 5.29

---
Query: May I ask what pIC50 has been recorded for `N#Cc1c(Oc2cc(F)cc(Cl)c2)ccc(S(=O)(=O)C(F)(F)F)c1C(=O)O` ?
Result: 4.92

Query: May I ask what pIC50 has been recorded for N#CN=S(=O)(CF)c1ccc(Oc2cc(F)cc(C#N)c2)c2c1[C@H](O)[C@H](F)C2 (single isomer, unassigned) [Example 276] ?
Result: 7.24

Query: May I ask what pIC50 has been recorded for `CS(=O)(=O)c1ccc(Oc2cncc(Cl)c2)c2c1[C@H](O)C(F)(F)[C@@H]2F` ?
Result: 8.15

Query: May I ask what pIC50 has been recorded for CS(=O)(=O)c1ccc(Oc2cc(F)cc(C#N)c2)c2c1C(=O)C(F)(Cl)C2 (centres unmarked) ?
Result: 6.51

---

Examples of molecules with documented log10 of IC50 follow.
Tested on: HIF-2α HIS TAG-PASB Domain
Test: HIF-2α Scintillation Proximity Assay (SPA)
Format: binding
On a log10 scale: recorded IC50, unit nM.

Study these solved cases before continuing.
Query: May I ask what log10 of IC50 has been recorded for N#Cc1cc(F)cc(Oc2ccc(S(=O)(=O)C(F)(F)F)c3c2CC(F)C3N)c1 (centres unmarked) [Compound 265] ?
Result: 1.95

Query: May I ask what log10 of IC50 has been recorded for `O=S(=O)(c1ccc(Oc2cc(F)cc(CO)c2)c(Br)c1)C(F)(F)F` ?
Result: 4.26

Query: May I ask what log10 of IC50 has been recorded for CS(=O)(=NC#N)c1ccc(Oc2cc(F)cc(C#N)c2)c2c1[C@H](O)C(F)(F)[C@H]2F (some centres unmarked) ?
Result: 3.38

Query: May I ask what log10 of IC50 has been recorded for `O=S(=O)(c1ccc(Oc2cc(Cl)c[n+]([O-])c2)c2c1[C@H](O)C(F)(F)C2)C(F)(F)F` ?
Result: 1.82

Query: May I ask what log10 of IC50 has been recorded for `COC(=O)/C=C/c1c(S(=O)(=O)C(F)(F)F)ccc(Oc2cc(F)cc(C#N)c2)c1C` ?
Result: 2.04

---
Query: May I ask what log10 of IC50 has been recorded for `Cc1cc(S(=O)(=O)C(F)F)ccc1Oc1cc(F)cc(C#N)c1` ?
Result: 2.36

Query: May I ask what log10 of IC50 has been recorded for N#Cc1cc(F)cc(Oc2ccc(S(=N)(=O)C(F)(F)F)cc2C#N)c1 (centres unmarked) ?
Result: 3.15

---

System: HIF-2α HIS TAG-PASB Domain
Assay: HIF-2α Scintillation Proximity Assay (SPA)
Assay type: binding
property_name: IC50 (nM)
Output spec: scalar in nM, unitless text.

Query: Lookup: IC50 / HIF-2α HIS TAG-PASB Domain / O=S(=O)(c1ccc(Oc2ccc(F)c(Cl)c2)c2c1C(O)CC2)C(F)(F)F (stereo not shown)
Result: 810

Query: Lookup: IC50 / HIF-2α HIS TAG-PASB Domain / CS(=N)(=O)c1ccc(Oc2cc(F)cc(F)c2)c2c1C(O)CC2 (stereo not shown)
Result: 580

Query: Lookup: IC50 / HIF-2α HIS TAG-PASB Domain / N#CN=S(=O)(c1ccc(Oc2cc(F)cc(C#N)c2)c2c1[C@H](O)[C@H](F)C2)C(F)F (stereo partly shown) [Compound 299]
Result: 16100

Query: Lookup: IC50 / HIF-2α HIS TAG-PASB Domain / `Cc1cc(S(=O)(=O)C(F)F)ccc1Oc1cc(F)cc(Cl)c1`
Result: 370

---
Query: Lookup: IC50 / HIF-2α HIS TAG-PASB Domain / `N#Cc1cc(S(=O)(=O)C(F)F)ccc1Oc1cc(F)cc(Cl)c1`
Result: 500

Query: Lookup: IC50 / HIF-2α HIS TAG-PASB Domain / `N#Cc1c(Oc2cc(F)cc(Cl)c2)ccc(S(=O)(=O)C(F)(F)F)c1NCCO`
Result: 11700

Query: Lookup: IC50 / HIF-2α HIS TAG-PASB Domain / N#CN=S(=O)(CF)c1ccc(Oc2cc(F)cc(C#N)c2)c2c1[C@H](O)[C@H](F)C2 (single isomer, unassigned) [Example 277]
Result: 135

Query: Lookup: IC50 / HIF-2α HIS TAG-PASB Domain / `O=S(=O)(c1ccc(Oc2cc(F)cc(F)c2)c2c1C=CC2)C(F)F`
Result: 140

Query: Lookup: IC50 / HIF-2α HIS TAG-PASB Domain / `N#Cc1cccc(Oc2ccc(S(=O)(=O)C(F)F)c(CO)c2Br)c1`
Result: 290

Query: Lookup: IC50 / HIF-2α HIS TAG-PASB Domain / N#Cc1cc(F)cc(Oc2ccc(S(=N)(=O)CF)c3c2CC(F)(F)[C@H]3O)c1 (single isomer, unassigned) [Example 275]
Result: 76

Query: Lookup: IC50 / HIF-2α HIS TAG-PASB Domain / N#CN=S(=O)(CF)c1ccc(Oc2cc(F)cc(C#N)c2)c2c1[C@H](O)C(F)(F)C2 (single isomer, unassigned) [Example 285]
Result: 71

Query: Lookup: IC50 / HIF-2α HIS TAG-PASB Domain / N#CN=S(=O)(CF)c1ccc(Oc2cc(F)cc(C#N)c2)c2c1[C@H](O)CC2 (stereo partly shown) [Compound 282]
Result: 7200

Query: Lookup: IC50 / HIF-2α HIS TAG-PASB Domain / `N#Cc1cc(F)cc(Oc2ccc(S(=O)(=O)C(F)(F)F)c(Cl)c2C#N)c1`
Result: 22

Query: Lookup: IC50 / HIF-2α HIS TAG-PASB Domain / `O=S(=O)(c1ccc(Oc2cccc3[nH]ncc23)c2c1[C@H](O)C(F)(F)C2)C(F)(F)F`
Result: 25

---

System: HIF-2α HIS TAG-PASB Domain
Assay: HIF-2α Scintillation Proximity Assay (SPA)
Assay type: binding
pIC50: −log10 of the molar value.
param class (str): category from pIC50; see ranges lower = under 6, middle = from 6 up to 7, upper = 7 and over

Illustrative cases are given below, each with its answer.
Query: Pick a category. Item: N#Cc1cccc(Oc2ccc(S(=O)(=O)C(F)F)c3c2CC(F)(F)[C@H]3O)c1 [Example 236]
Result: upper

Query: Pick a category. Item: C=CCC1(O)c2c(S(=O)(=O)C(F)F)ccc(Oc3cc(F)cc(F)c3)c2CC1(F)F (stereo not drawn) [Compound 12]
Result: lower

Query: Pick a category. Item: NC(=O)c1cc(S(=O)(=O)C(F)(F)F)ccc1Oc1cc(F)cc(Cl)c1 [Compound 125]
Result: lower

Query: Pick a category. Item: CNCc1c(S(=O)(=O)C(F)(F)F)ccc(Oc2cc(F)cc(Cl)c2)c1Cl [Compound 113]
Result: lower

---
Query: Pick a category. Item: N#Cc1c(Oc2cc(F)cc(Cl)c2)ccc(S(=O)(=O)C(F)(F)F)c1F [Compound 153]
Result: middle

Query: Pick a category. Item: CS(=O)(=O)c1ccc(Oc2cc(F)cc(Cl)c2)c2c1C(O)CC2 (stereo not drawn) [Compound 90]
Result: middle

Query: Pick a category. Item: N#Cc1cncc(Oc2ccc(S(=O)(=O)C(F)F)c3c2CC(F)(F)[C@H]3O)c1 [Example 27]
Result: middle

Query: Pick a category. Item: CN(C)Cc1c(S(=O)(=O)C(F)F)ccc(Oc2cc(F)cc(Cl)c2)c1C#N [Compound 36]
Result: lower

Query: Pick a category. Item: O=S(=O)(c1ccc(Oc2cc(F)cc(Cl)c2)c(Cl)c1CNC1CCCOC1)C(F)F (stereo not drawn) [Compound 49]
Result: lower

Query: Pick a category. Item: CS(=O)(=NC#N)c1ccc(Oc2cncc(C#N)c2)c2c1[C@H](O)C(F)(F)[C@@H]2F (single isomer, unassigned) [Compound 319]
Result: upper

Query: Pick a category. Item: Cc1c(Oc2cc(F)cc(C#N)c2)ccc(S(=O)(=O)C(F)(F)F)c1C#CCO [Compound 142]
Result: lower

Query: Pick a category. Item: CS(=O)(=O)c1ccc(Oc2cc(F)cc(Br)c2)c2c1[C@H](O)C(F)(F)C2 [Example 304]
Result: upper

Query: Pick a category. Item: O=S(=O)(c1ccc(Oc2ccc(F)c(F)c2)c2c1C(O)CC2)C(F)(F)F (stereo not drawn) [Compound 214]
Result: middle

Query: Pick a category. Item: N#Cc1cc(F)cc(Oc2ccc(S(=O)(=O)C(F)(F)F)c3c2CC(F)C3N)c1 (stereo not drawn) [Compound 268]
Result: lower

Query: Pick a category. Item: CS(=O)(=O)c1ccc(Oc2cncc(C#N)c2)c2c1[C@H](O)C(F)(F)C2 [Compound 325]
Result: middle

Query: Pick a category. Item: O=S(=O)(c1ccc(Oc2ccc(F)c(F)c2)c2c1[C@H](O)C(F)(F)C2)C(F)(F)F [Example 233]
Result: upper

Query: Pick a category. Item: CS(=O)(=O)c1ccc(Oc2cncc(C#N)c2)c2c1[C@H](O)[C@H](F)C2 [Compound 313]
Result: lower

Each recorded value in this set is attributed to patent US9896418B2.
